Recorded values, source PubChem BioAssay (NCI).

I'd appreciate it if you could supply TGI values for the items below.
- Tested on: NCI-H226 lung
- Experiment Summary: NCI tumour cell line growth inhibition, 48 h

Any idea what its TGI is? The compound is `COc1ccc(C(=O)/C=C/c2ccc(Cl)c(Cl)c2)cc1S(N)(=O)=O`
13.4 µM

Any idea what its TGI is? The compound is `O=C(N=Nc1c(O)[nH]c2ccc(Br)cc12)c1ccc2nc(-c3ccc(Cl)cc3)[nH]c2c1`
> 38 µM

Any idea what its TGI is? The compound is `COc1cc(-c2nc3ccc(C)cc3[nH]2)ccc1OCc1nnc(-c2ccc(Br)cc2)o1`
> 100 µM

Any idea what its TGI is? The compound is O=C(c1ccc(Cl)cc1)C1[C@H](c2ccccc2Br)[C@@H](c2ccccc2)NC12C(=O)Nc1ccc(Cl)cc12 (some centres undefined)
17.2 µM
